Parameter switch fluorescence ratio: see the listing below.
# Test system: ATP;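 also: ATP exposure 15 min at 22 °C before imaging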
# test-summary: switch fluorescence ratio, 500 uM ATP over buffer (Cy3 cluster intensity, sum of 5 cycles each) (fold (ratio)); higher = stronger signal-on switching upon ATP binding; sequences stand for … in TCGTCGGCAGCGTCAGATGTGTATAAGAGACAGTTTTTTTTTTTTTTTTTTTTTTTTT…TC
# details: aptamer strand: ATP DNA aptamer (quencher-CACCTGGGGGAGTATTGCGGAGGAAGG + anchor), 100 nM annealed; ATP concentration: 500 uM
assay-metric: switch fluorescence ratio

1. ACGTGAGTGT | 0.977
2. TTTAAGTTGG | 0.983
3. TTCATGTGTT | 1.04
4. CGGTGGAGGG | 0.985
5. TTACTTAAAA | 0.988
6. TATGATCTTT | 1.03
7. ATTTGTAATC | 1.22
8. TTTCTAGACC | 1.1
9. TCGGTTGTGA | 0.999
10. AATCTGCTCG | 0.986
11. ATGTGGGCTG | 0.979
12. GAGTGCGCTG | 1.02
13. CGAGCCTTGT | 1.01
14. AAATATGGGC | 0.961
15. TTTTAATACT | 1.04
16. GGCAGCCGGT | 1
17. ATGTTTTCCT | 1.07
18. AAATATTGGT | 1.01
19. ATGGAGGGCA | 1.03
20. GGATCGGTCA | 1.02
21. ACTGGTGCAT | 1.04
22. AGGGTTAATG | 1.05
23. TGATTAAGAT | 0.994
24. TAGGATAGAC | 1
25. CATCATTATA | 0.987
26. GGGGTAGTCG | 0.988
27. AGGGAGAAGG | 1
28. ACCTGCGGGG | 1.01
29. GAAAAAAGTG | 0.994
30. AGAAAAATAC | 1.49
31. GATGATGCTG | 1.03
32. ATTGTAGTTT | 1
33. TGGGGCAAGG | 1.04
34. AGGGTTGAAG | 0.989
35. TTTAGCTGT | 1.1
36. TCGAACCGAG | 1.2
37. TTTTCGTGGC | 0.989
38. TTACGTAAGG | 1.23
39. AGCCGATATT | 0.967
40. GGAAACTTTG | 1.04
41. GTGTTATTAG | 1.01
42. TAGCGCCCCG | 0.987
43. GCAGAAAAAA | 0.988

The values you see were collected from the supplement of paper PMC10126150.
